System: 616215-338-R-J1-PDC complex spheroid viability
Experiment: Anticancer human tumor 616215-338-R-J1-PDC patient-derived colon adenocarcinoma cell line growth inhibition [RAS]
Settings: second compound 0.000949 µM; first compound 10 µM; hits give low values
measuredProperty: viability, T/C

compound="CCC(CC)c1cc(NC2CCC(N)C2)n2nccc2n1 (centres undefined) + CCn1c(-c2cccnc2C(C)OC)c2c3cc(ccc31)N1CCOC(CC(NC(=O)C(C(C)C)N(C)C(=O)C3(F)CCN(C(=O)C#CC(C)(C)N(C)C)CC3)C(=O)N3CCCC(N3)C(=O)OCC(C)(C)C2)C1" measurement=0.29%
compound="CC(C)NCC(C(=O)N1CCN(c2ncnc3c2C(C)CC3O)CC1)c1ccc(Cl)cc1 (centres undefined) + CCn1c(-c2cccnc2C(C)OC)c2c3cc(ccc31)N1CCOC(CC(NC(=O)C(C(C)C)N(C)C(=O)C3(F)CCN(C(=O)C#CC(C)(C)N(C)C)CC3)C(=O)N3CCCC(N3)C(=O)OCC(C)(C)C2)C1" measurement=44.7%
compound="CC(Nc1ccc2c(c1)OCCn1cc(N3C(=O)OCC3C(F)F)nc1-2)C(N)=O (centres undefined) + CCn1c(-c2cccnc2C(C)OC)c2c3cc(ccc31)N1CCOC(CC(NC(=O)C(C(C)C)N(C)C(=O)C3(F)CCN(C(=O)C#CC(C)(C)N(C)C)CC3)C(=O)N3CCCC(N3)C(=O)OCC(C)(C)C2)C1" measurement=91.9%

Continue with the compound presented below.
Given C[C@@H](NC(=O)c1ncnc(N)c1Cl)c1ncc(C(=O)Nc2cc(C(F)(F)F)c(Cl)cn2)s1 + CCn1c(-c2cc(N3CCN(C)CC3)cnc2C(C)OC)c2c3cc(ccc31)-c1csc(n1)CC(NC(=O)C1CC1C)C(=O)N1CCCC(N1)C(=O)OCC(C)(C)C2 , respond with its viability, T/C.
43.9%

---

Field: viability, T/C. Provide a value for each of the compounds that follow.
System: 616215-338-R-J1-PDC complex spheroid viability
Assay: Anticancer human tumor 616215-338-R-J1-PDC cell line growth inhibition [RAS];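 note: spheroids exposed to agents for seven days before viability readout; 100% = DMSO vehicle control viability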
Conditions: second compound 0.03 µM; first compound 0.0316 µM; hits give low values
Numbers only, in %.

compound="CCN1CCN(Cc2ccc(Nc3ncc(F)c(-c4cc(F)c5nc(C)n(C(C)C)c5c4)n3)nc2)CC1 + CCn1c(-c2cccnc2C(C)OC)c2c3cc(ccc31)N1CCOC(CC(NC(=O)C(C(C)C)N(C)C(=O)C3(F)CCN(C(=O)C#CC(C)(C)N(C)C)CC3)C(=O)N3CCCC(N3)C(=O)OCC(C)(C)C2)C1" measurement=118

Then there is this compound:
For C[C@@H](NC(=O)c1ncnc(N)c1Cl)c1ncc(C(=O)Nc2cc(C(F)(F)F)c(Cl)cn2)s1 + CCn1c(-c2cccnc2C(C)OC)c2c3cc(ccc31)N1CCOC(CC(NC(=O)C(C(C)C)N(C)C(=O)C3(F)CCN(C(=O)C#CC(C)(C)N(C)C)CC3)C(=O)N3CCCC(N3)C(=O)OCC(C)(C)C2)C1 , write its viability, T/C.
101

---

Please go through the items and note down their viability, T/C.
Test system: 616215-338-R-J1-PDC complex spheroid viability
Assay: Anticancer human tumor 616215-338-R-J1-PDC cell line growth inhibition [RAS];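 note: spheroids exposed to agents for seven days before viability readout; 100% = DMSO vehicle control viability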
Conditions: second compound 0.003 µM; first compound 0.1 µM; hits give low values
Numbers only, in %.

compound="NC1c2ccccc2OC12CCN(c1cnc3c(N4CCCc5ncccc54)n[nH]c3n1)CC2 (centres undefined) + CCn1c(-c2cccnc2C(C)OC)c2c3cc(ccc31)N1CCOC(CC(NC(=O)C(C(C)C)N(C)C(=O)C3(F)CCN(C(=O)C#CC(C)(C)N(C)C)CC3)C(=O)N3CCCC(N3)C(=O)OCC(C)(C)C2)C1" measurement=94.7
compound="CCC(CC)c1cc(NC2CCC(N)C2)n2nccc2n1 (centres undefined) + CCn1c(-c2cc(N3CCN(C)CC3)cnc2C(C)OC)c2c3cc(ccc31)-c1csc(n1)CC(NC(=O)C1CC1C)C(=O)N1CCCC(N1)C(=O)OCC(C)(C)C2" measurement=108
compound="CC1(O)CCCC1n1c(=O)c(C(F)F)cc2cnc(NC3CCN(S(C)(=O)=O)CC3)nc21 (centres undefined) + CCn1c(-c2cccnc2C(C)OC)c2c3cc(ccc31)N1CCOC(CC(NC(=O)C(C(C)C)N(C)C(=O)C3(F)CCN(C(=O)C#CC(C)(C)N(C)C)CC3)C(=O)N3CCCC(N3)C(=O)OCC(C)(C)C2)C1" measurement=109

Shift focus to the following entry.
Give me measured viability, T/C, please, for this compound: C=CC(=O)N1CCN(c2nc(OCC3CCCN3C)nc3c(F)c(-c4nc(N)cc(C)c4C(F)(F)F)c(Cl)cc23)C(C)C1 (centres undefined) + CCn1c(-c2cccnc2C(C)OC)c2c3cc(ccc31)N1CCOC(CC(NC(=O)C(C(C)C)N(C)C(=O)C3(F)CCN(C(=O)C#CC(C)(C)N(C)C)CC3)C(=O)N3CCCC(N3)C(=O)OCC(C)(C)C2)C1
111

---

Field: viability, T/C. Provide a value for each of the compounds that follow.
System: 616215-338-R-J1-PDC complex spheroid viability
Test: Anticancer human tumor 616215-338-R-J1-PDC cell line growth inhibition [RAS];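 note: spheroids exposed to agents for seven days before viability readout; 100% = DMSO vehicle control viability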
Conditions: second compound 0.1 µM; first compound 10 µM; hits give low values
Answers are plain numbers, in %.

Solved cases below.
compound="C[C@@H](NC(=O)c1ncnc(N)c1Cl)c1ncc(C(=O)Nc2cc(C(F)(F)F)c(Cl)cn2)s1 + C=CC(=O)N1CCN(c2nc(OCC3CCCN3C)nc3c(F)c(-c4nc(N)cc(C)c4C(F)(F)F)c(Cl)cc23)C(C)C1" system="616215-338-R-J1-PDC complex spheroid viability" measuredproperty="viability, T/C" measurement=48.6
compound="CC1(O)CCCC1n1c(=O)c(C(F)F)cc2cnc(NC3CCN(S(C)(=O)=O)CC3)nc21 (configuration not stated) + C#Cc1c(F)ccc2cc(O)cc(-c3ncc4c(N5CC6CCC(C5)N6)nc(OCC56CCCN5CC(F)C6)nc4c3F)c12" system="616215-338-R-J1-PDC complex spheroid viability" measuredproperty="viability, T/C" measurement=0.75
compound="CC1(O)CCCC1n1c(=O)c(C(F)F)cc2cnc(NC3CCN(S(C)(=O)=O)CC3)nc21 (configuration not stated) + C=CC(=O)N1CCN(c2nc(OCC3CCCN3C)nc3c(F)c(-c4nc(N)cc(C)c4C(F)(F)F)c(Cl)cc23)C(C)C1" system="616215-338-R-J1-PDC complex spheroid viability" measuredproperty="viability, T/C" measurement=1.02
compound="CCC(CC)c1cc(NC2CCC(N)C2)n2nccc2n1 (configuration not stated) + C=CC(=O)N1CCN(c2nc(OCC3CCCN3C)nc3c(F)c(-c4nc(N)cc(C)c4C(F)(F)F)c(Cl)cc23)C(C)C1" system="616215-338-R-J1-PDC complex spheroid viability" measuredproperty="viability, T/C" measurement=0.27
compound="Cc1nc(N2CCC3(CC2)COC(C)C3N)c(CO)nc1Sc1ccnc(N)c1Cl (configuration not stated) + C#Cc1c(F)ccc2cc(O)cc(-c3ncc4c(N5CC6CCC(C5)N6)nc(OCC56CCCN5CC(F)C6)nc4c3F)c12" system="616215-338-R-J1-PDC complex spheroid viability" measuredproperty="viability, T/C" measurement=63.1
compound="CCC(CC)c1cc(NC2CCC(N)C2)n2nccc2n1 (configuration not stated) + C#Cc1c(F)ccc2cc(O)cc(-c3ncc4c(N5CC6CCC(C5)N6)nc(OCC56CCCN5CC(F)C6)nc4c3F)c12" system="616215-338-R-J1-PDC complex spheroid viability" measuredproperty="viability, T/C" measurement=0.21

Please examine the following record next.
Give the value of viability, T/C reported for the following: NC1c2ccccc2OC12CCN(c1cnc3c(N4CCCc5ncccc54)n[nH]c3n1)CC2 (configuration not stated) + C#Cc1c(F)ccc2cc(O)cc(-c3ncc4c(N5CC6CCC(C5)N6)nc(OCC56CCCN5CC(F)C6)nc4c3F)c12
43.4

---

System: 616215-338-R-J1-PDC complex spheroid viability
Assay: Anticancer human tumor 616215-338-R-J1-PDC cell line growth inhibition [RAS];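 note: spheroids exposed to agents for seven days before viability readout; 100% = DMSO vehicle control viability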
Settings: second compound 0.03 µM; first compound 0.0316 µM; hits give low values
measuredProperty: viability, T/C

compound="Cc1nc(N2CCC3(CC2)COC(C)C3N)c(CO)nc1Sc1ccnc(N)c1Cl (centres undefined) + CCn1c(-c2cc(N3CCN(C)CC3)cnc2C(C)OC)c2c3cc(ccc31)-c1csc(n1)CC(NC(=O)C1CC1C)C(=O)N1CCCC(N1)C(=O)OCC(C)(C)C2" measurement=43.8%
compound="C=CC(=O)N1CCN(c2nc(OCC3CCCN3C)nc3c(F)c(-c4nc(N)cc(C)c4C(F)(F)F)c(Cl)cc23)C(C)C1 (centres undefined) + CCn1c(-c2cc(N3CCN(C)CC3)cnc2C(C)OC)c2c3cc(ccc31)-c1csc(n1)CC(NC(=O)C1CC1C)C(=O)N1CCCC(N1)C(=O)OCC(C)(C)C2" measurement=49.3%
compound="CC(C)n1nc(-c2ccc3oc(N)nc3c2)c2c(N)ncnc21 + CCn1c(-c2cccnc2C(C)OC)c2c3cc(ccc31)N1CCOC(CC(NC(=O)C(C(C)C)N(C)C(=O)C3(F)CCN(C(=O)C#CC(C)(C)N(C)C)CC3)C(=O)N3CCCC(N3)C(=O)OCC(C)(C)C2)C1" measurement=102%

Next compound, viability, T/C to be filled in.
Give me measured viability, T/C, please, for this compound: CC(Nc1ccc2c(c1)OCCn1cc(N3C(=O)OCC3C(F)F)nc1-2)C(N)=O (centres undefined) + CCn1c(-c2cccnc2C(C)OC)c2c3cc(ccc31)N1CCOC(CC(NC(=O)C(C(C)C)N(C)C(=O)C3(F)CCN(C(=O)C#CC(C)(C)N(C)C)CC3)C(=O)N3CCCC(N3)C(=O)OCC(C)(C)C2)C1
95.4%
